Measured IC50, listed per entry.
- Target or test system: PI3Kalpha (PIK3CA/PIK3R1, p110 alpha/p85 alpha) (Homo sapiens, UniProt P42336)
- Construct: recombinant human, full length, N-terminal His-tagged phosphoinositide-3-kinase catalytic subunit alpha polypeptide; His (N); purchased Invitrogen Corp. PV4788; host or cells: insect cells
- Sequence (P42336 whole entry): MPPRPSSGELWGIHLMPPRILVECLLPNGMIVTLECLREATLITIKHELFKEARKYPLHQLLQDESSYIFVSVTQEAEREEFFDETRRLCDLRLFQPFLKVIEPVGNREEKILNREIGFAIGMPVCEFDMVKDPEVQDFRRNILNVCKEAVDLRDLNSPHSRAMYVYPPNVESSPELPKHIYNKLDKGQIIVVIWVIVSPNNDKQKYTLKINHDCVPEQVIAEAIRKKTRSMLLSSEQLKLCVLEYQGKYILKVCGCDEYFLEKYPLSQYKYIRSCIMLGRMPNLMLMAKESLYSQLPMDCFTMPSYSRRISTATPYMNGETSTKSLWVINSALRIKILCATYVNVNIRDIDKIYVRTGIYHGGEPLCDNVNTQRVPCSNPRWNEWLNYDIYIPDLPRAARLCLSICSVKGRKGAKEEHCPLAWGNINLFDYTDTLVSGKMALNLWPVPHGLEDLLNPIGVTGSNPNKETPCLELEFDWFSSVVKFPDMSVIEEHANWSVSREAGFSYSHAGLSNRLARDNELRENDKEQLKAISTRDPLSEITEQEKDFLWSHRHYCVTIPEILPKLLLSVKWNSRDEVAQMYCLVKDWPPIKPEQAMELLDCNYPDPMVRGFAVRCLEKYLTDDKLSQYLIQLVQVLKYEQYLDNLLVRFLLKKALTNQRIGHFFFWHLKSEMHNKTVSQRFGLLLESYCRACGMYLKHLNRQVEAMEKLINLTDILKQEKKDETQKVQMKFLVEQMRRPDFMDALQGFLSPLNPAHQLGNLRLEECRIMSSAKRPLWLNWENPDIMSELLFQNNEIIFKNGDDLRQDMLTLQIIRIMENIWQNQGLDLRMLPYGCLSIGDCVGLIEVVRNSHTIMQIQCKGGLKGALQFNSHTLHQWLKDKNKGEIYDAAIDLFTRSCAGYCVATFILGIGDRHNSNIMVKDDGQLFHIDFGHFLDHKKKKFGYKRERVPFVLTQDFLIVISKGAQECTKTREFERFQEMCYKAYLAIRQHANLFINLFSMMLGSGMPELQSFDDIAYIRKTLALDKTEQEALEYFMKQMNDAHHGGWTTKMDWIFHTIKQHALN
- Sequence (P27986 whole entry partner): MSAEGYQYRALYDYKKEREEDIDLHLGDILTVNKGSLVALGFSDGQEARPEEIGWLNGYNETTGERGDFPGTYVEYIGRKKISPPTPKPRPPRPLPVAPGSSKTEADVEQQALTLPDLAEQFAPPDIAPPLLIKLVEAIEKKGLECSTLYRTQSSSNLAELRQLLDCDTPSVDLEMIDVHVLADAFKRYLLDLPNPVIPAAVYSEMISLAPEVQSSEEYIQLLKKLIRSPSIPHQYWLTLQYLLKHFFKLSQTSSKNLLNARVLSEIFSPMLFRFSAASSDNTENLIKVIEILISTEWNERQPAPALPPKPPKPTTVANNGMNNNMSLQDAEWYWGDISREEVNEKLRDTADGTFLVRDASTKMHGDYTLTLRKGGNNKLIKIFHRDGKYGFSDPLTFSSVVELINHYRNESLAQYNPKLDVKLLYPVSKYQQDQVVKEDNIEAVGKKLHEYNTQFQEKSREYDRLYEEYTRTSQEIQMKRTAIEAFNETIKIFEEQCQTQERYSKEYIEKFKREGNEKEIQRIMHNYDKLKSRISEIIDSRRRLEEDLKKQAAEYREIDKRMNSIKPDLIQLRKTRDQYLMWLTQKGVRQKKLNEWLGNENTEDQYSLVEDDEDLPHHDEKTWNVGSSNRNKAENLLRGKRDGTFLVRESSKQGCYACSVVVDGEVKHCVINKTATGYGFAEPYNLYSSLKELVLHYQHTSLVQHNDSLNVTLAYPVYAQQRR
- Procedure summary: Adapta universal kinase assay, inhibition of PI3Kalpha (Example B)
- Type: biochemical
- Condition notes: Table 1; 25 μM ATP; read-out: IC50 (nM) PI3Kα

Sample answers from the record:
> print(dat)
                                   compound                     target.or.test.system  value.reported
1  CC(=O)Nc1nc2ccc(-c3ccc(S(C)(=O)=O)cc3)nc2s1 [Example 26]  PI3Kalpha (PIK3CA/PIK3R1, p110 alpha/p85 alpha) (Homo sapiens, UniProt P42336)       > 1000 nM
2  CC(=O)Nc1nc2ccc(-c3ccc(C(C)(C)C#N)cc3)nc2s1 [Example 5]  PI3Kalpha (PIK3CA/PIK3R1, p110 alpha/p85 alpha) (Homo sapiens, UniProt P42336)       > 1000 nM

Measured on PI3Kalpha (PIK3CA/PIK3R1, p110 alpha/p85 alpha) (Homo sapiens, UniProt P42336), CC(=O)Nc1nc2ccc(-c3cc(NS(C)(=O)=O)c4[nH]ccc4c3)cc2s1 [Example 32] has a documented IC50 of > 1000 nM

Measured on PI3Kalpha (PIK3CA/PIK3R1, p110 alpha/p85 alpha) (Homo sapiens, UniProt P42336), CNS(=O)(=O)c1ccc(-c2ccc3nc(NC(C)=O)sc3n2)cc1 [Example 28] has a documented IC50 of > 1000 nM

Measured on PI3Kalpha (PIK3CA/PIK3R1, p110 alpha/p85 alpha) (Homo sapiens, UniProt P42336), CC(=O)Nc1cccc(-c2ccc3nc(NC(C)=O)sc3c2)c1 [Example 41] has a documented IC50 of > 1000 nM

---

- Target or test system: mTOR (Homo sapiens, UniProt P42345)
- Sequence (P42345 1360-2549): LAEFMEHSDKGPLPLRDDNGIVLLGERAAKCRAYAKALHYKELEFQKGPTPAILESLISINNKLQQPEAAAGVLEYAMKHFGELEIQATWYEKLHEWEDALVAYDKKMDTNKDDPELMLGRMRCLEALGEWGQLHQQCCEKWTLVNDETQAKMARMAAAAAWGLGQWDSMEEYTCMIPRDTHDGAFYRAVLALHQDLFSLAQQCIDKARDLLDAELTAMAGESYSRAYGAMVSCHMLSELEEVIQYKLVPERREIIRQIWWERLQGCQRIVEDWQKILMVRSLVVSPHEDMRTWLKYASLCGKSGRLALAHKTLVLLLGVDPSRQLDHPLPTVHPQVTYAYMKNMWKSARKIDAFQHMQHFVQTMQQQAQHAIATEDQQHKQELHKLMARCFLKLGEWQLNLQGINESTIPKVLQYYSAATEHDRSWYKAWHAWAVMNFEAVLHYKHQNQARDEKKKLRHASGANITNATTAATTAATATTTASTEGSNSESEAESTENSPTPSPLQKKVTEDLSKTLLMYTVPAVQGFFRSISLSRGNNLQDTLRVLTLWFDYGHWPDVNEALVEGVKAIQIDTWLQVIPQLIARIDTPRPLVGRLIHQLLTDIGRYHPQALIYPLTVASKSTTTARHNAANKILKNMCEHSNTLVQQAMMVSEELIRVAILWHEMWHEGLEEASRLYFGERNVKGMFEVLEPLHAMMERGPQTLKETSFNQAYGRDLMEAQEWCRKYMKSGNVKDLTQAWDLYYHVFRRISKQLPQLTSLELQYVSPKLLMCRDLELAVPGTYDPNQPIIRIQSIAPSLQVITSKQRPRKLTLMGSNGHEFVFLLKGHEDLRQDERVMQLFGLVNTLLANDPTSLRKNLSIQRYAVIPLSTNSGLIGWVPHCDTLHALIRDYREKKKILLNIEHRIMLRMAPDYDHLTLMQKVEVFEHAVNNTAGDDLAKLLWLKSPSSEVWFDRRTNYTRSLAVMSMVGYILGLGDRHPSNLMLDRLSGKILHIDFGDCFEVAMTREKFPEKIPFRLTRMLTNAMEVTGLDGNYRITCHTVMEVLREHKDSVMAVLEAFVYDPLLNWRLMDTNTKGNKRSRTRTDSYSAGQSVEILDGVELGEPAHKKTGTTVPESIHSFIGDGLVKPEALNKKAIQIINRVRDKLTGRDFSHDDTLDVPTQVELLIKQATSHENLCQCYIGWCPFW
- Procedure summary: Z-Lyte biochemical assay, inhibition of mTOR (Example A)
- Condition notes: IC50 (nM) mTOR, Table 1; 10 μM ATP
Experimental endpoint: IC50

Sample answers from the record:
> print(dat)
                               entry.smiles  experimental.endpoint  value.reported
1  CC(=O)Nc1nc2ccc(-c3cnc(Cl)c(NS(=O)(=O)c4ccccc4)c3)nc2s1                   IC50        < 100 nM
2  CNC(=O)c1ccc(-c2ccc3nc(NC(C)=O)sc3n2)cn1                   IC50  100 to 1000 nM

The recorded IC50 for CC(=O)Nc1ccc(-c2ccc3nc(NC(C)=O)sc3c2)cc1 is 100 to 1000 nM

The recorded IC50 for CC(=O)Nc1nc2ccc(-c3ccccc3N)nc2s1 is > 1000 nM

The recorded IC50 for CC(=O)Nc1nc2ccc(-c3ccccc3)cc2s1 is > 1000 nM

---

- Target or test system: mTOR (Homo sapiens)
- Procedure summary: Z-Lyte biochemical assay, inhibition of mTOR (Example A)
- Condition notes: IC50 (nM) mTOR, Table 1; 10 μM ATP
Experimental endpoint: IC50

The recorded IC50 for CONC(=O)c1ccc(-c2ccc3nc(NC(C)=O)sc3n2)cc1 is 100 to 1000 nM

The recorded IC50 for CC(=O)Nc1nc2ccc(-c3ccc4[nH]cc(C=O)c4c3)cc2s1 is < 100 nM

The recorded IC50 for CC(=O)Nc1nc2ccc(-c3ccc4[nH]ccc4c3)nc2s1 is 100 to 1000 nM

The recorded IC50 for CC(=O)Nc1nc2ccc(-c3ccc4c(c3)NC(=O)CNC4=O)cc2s1 is > 1000 nM

The recorded IC50 for CC(=O)Nc1nc2ccc(-c3ccc(S(C)(=O)=O)cc3)nc2s1 is > 1000 nM

The recorded IC50 for CC(=O)Nc1nc2ccc(-c3cnc(Cl)c(NS(C)(=O)=O)c3)nc2s1 is < 100 nM

---

- Target or test system: PI3Kalpha (PIK3CA/PIK3R1, p110 alpha/p85 alpha) (Homo sapiens, UniProt P42336)
- Construct: recombinant human, full length, N-terminal His-tagged phosphoinositide-3-kinase catalytic subunit alpha polypeptide; His (N); purchased Invitrogen Corp. PV4788; host or cells: insect cells
- Procedure summary: Adapta universal kinase assay, inhibition of PI3Kalpha (Example B)
- Format: biochemical
- Condition notes: exact value in text; read-out: IC50 value for PI3K
Experimental endpoint: IC50 (nM)
Report only the number, with the unit nM understood.

Measured on PI3Kalpha (PIK3CA/PIK3R1, p110 alpha/p85 alpha) (Homo sapiens, UniProt P42336), CC(=O)Nc1nc2ccc(-c3ccc(NS(C)(=O)=O)cc3)nc2s1 has a documented IC50 of 310

---

Measured IC50, listed per entry.
- Target or test system: mTOR (Homo sapiens, UniProt P42345)
- Procedure summary: Z-Lyte biochemical assay, inhibition of mTOR (Example A)
- Condition notes: IC50 (nM) mTOR, Table 1; 10 μM ATP

The recorded IC50 for CC(=O)Nc1cccc(-c2ccc3nc(NC(C)=O)sc3c2)c1 is > 1000 nM

The recorded IC50 for CC(=O)Nc1nc2ccc(-c3ccc(N)cc3)cc2s1 is > 1000 nM

The recorded IC50 for CC(=O)Nc1nc2ccc(-c3ccc(C#N)nc3)nc2s1 is 100 to 1000 nM

The recorded IC50 for CC(=O)Nc1nc2ccc(-c3ccc4[nH]cc(C#N)c4c3)cc2s1 is 100 to 1000 nM

---

- Target or test system: mTOR (Homo sapiens, UniProt P42345)
- Procedure summary: Z-Lyte biochemical assay, inhibition of mTOR (Example A);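 note: synthetic Ser/Thr peptide with coumarin–fluorescein FRET pair, phosphorylation protects from protease cleavage, coumarin/fluorescein emission ratio after 400 nm excitation, 1 h kinase reaction, 10-point 3-fold titrations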
- Condition notes: IC50 (nM) mTOR, Table 1; 10 μM ATP
Experimental endpoint: IC50

Sample answers from the record:
> print(dat)
                                   molecule                target.or.test.system  value.reported
1  CONC(=O)c1cccc(-c2ccc3nc(NC(C)=O)sc3n2)c1 [Example 27]  mTOR (Homo sapiens, UniProt P42345)       > 1000 nM
2  CNC(=O)c1cccc(-c2ccc3nc(NC(C)=O)sc3c2)c1 [Example 40]  mTOR (Homo sapiens, UniProt P42345)       > 1000 nM
3  CC(=O)Nc1nc2ccc(-c3cccnc3)cc2s1 [Example 11]  mTOR (Homo sapiens, UniProt P42345)  100 to 1000 nM
4  CC(=O)Nc1nc2ccc(-c3cccc4[nH]ccc34)cc2s1 [Example 14]  mTOR (Homo sapiens, UniProt P42345)       > 1000 nM
5  CC(=O)Nc1nc2ccc(-c3ccc4[nH]ccc4c3)cc2s1 [Example 12]  mTOR (Homo sapiens, UniProt P42345)       > 1000 nM

The recorded IC50 for CCS(=O)(=O)Nc1cc(-c2ccc3nc(NC(C)=O)sc3n2)cnc1Cl [Example 47] is < 100 nM

The recorded IC50 for CNC(=O)c1ccc(-c2ccc3nc(NC(C)=O)sc3n2)cc1 [Example 35] is < 100 nM

The recorded IC50 for CC(=O)Nc1nc2ccc(-c3ccc(NS(C)(=O)=O)cc3)nc2s1 [Example 29] is 100 to 1000 nM

The recorded IC50 for CC(=O)Nc1ccc(-c2ccc3nc(NC(C)=O)sc3n2)cc1 [Example 36] is 100 to 1000 nM

---

- Target or test system: mTOR (Homo sapiens)
- Procedure summary: Z-Lyte biochemical assay, inhibition of mTOR (Example A)
- Condition notes: IC50 (nM) mTOR, Table 1; 10 μM ATP
Measured IC50, listed per entry.

Sample answers from the record:
> print(dat)
                               entry.smiles  value.reported
1  CS(=O)(=O)Nc1cc(-c2ccc3nc(NC(=O)C4CC4)sc3n2)cnc1Cl        < 100 nM
2  CC(=O)Nc1nc2ccc(-c3ccc(C(=O)NC4CC4)cc3)nc2s1  100 to 1000 nM
3        CC(=O)Nc1nc2ccc(-c3cnc(N)cn3)cc2s1  100 to 1000 nM
4      CC(=O)Nc1nc2ccc(-c3ccc4nccn4c3)nc2s1  100 to 1000 nM
5  CC(=O)Nc1nc2ccc(-c3ccc(N)cc3C(F)(F)F)cc2s1       > 1000 nM
6  CNS(=O)(=O)c1ccc(-c2ccc3nc(NC(C)=O)sc3n2)cc1       > 1000 nM
7   CC(=O)Nc1nc2ccc(-c3ccc4[nH]ncc4c3)nc2s1  100 to 1000 nM
8  CC(=O)Nc1nc2ccc(-c3ccc4[nH]cc(C(N)=O)c4c3)cc2s1       > 1000 nM

The recorded IC50 for CC(=O)Nc1nc2ccc(-c3cnc(Cl)c(NS(=O)(=O)c4ccccc4)c3)cc2s1 is < 100 nM

The recorded IC50 for CC(=O)Nc1ccc(-c2ccc3nc(NC(C)=O)sc3n2)cn1 is 100 to 1000 nM

The recorded IC50 for CC(=O)Nc1nc2ccc(-c3ccc(C(N)=O)cc3)nc2s1 is < 100 nM

The recorded IC50 for CC(=O)Nc1nc2ccc(-c3ccc(-c4nnc[nH]4)cc3)nc2s1 is < 100 nM

The recorded IC50 for CC(=O)Nc1nc2ccc(-c3cnc4[nH]ccc4c3)nc2s1 is < 100 nM

The recorded IC50 for CC(=O)Nc1nc2ccc(-c3ccc4c(c3)CC(=O)N4)nc2s1 is 100 to 1000 nM

The recorded IC50 for CC(=O)Nc1nc2ccc(-c3ccncc3)nc2s1 is > 1000 nM

The recorded IC50 for CC(=O)Nc1nc2ccc(-c3cnc(Cl)c(NS(=O)(=O)C4CC4)c3)nc2s1 is > 1000 nM

The recorded IC50 for CC(=O)Nc1nc2ccc(-c3cnc4cc[nH]c4c3)nc2s1 is < 100 nM

The recorded IC50 for CC(=O)Nc1nc2ccc(-c3cnc(Cl)c(NS(C)(=O)=O)c3)cc2s1 is < 100 nM

The recorded IC50 for CC(=O)Nc1nc2ccc(-c3ccc(C(C)(C)C#N)cc3)nc2s1 is > 1000 nM

The recorded IC50 for CC(=O)Nc1nc2ccc(-c3cc(NS(C)(=O)=O)c4[nH]ccc4c3)cc2s1 is > 1000 nM
